Tested on: MS2 coat protein
testDescription: apparent KD of MS2 coat protein, switch OFF state (with FMN for OFF switches, without FMN for ON switches); designed switch direction (-1 OFF switch, 1 ON switch): -1; higher = weaker reporter binding
conditionSet: FMN input: 0 or 200 uM; Eterna round: R93 (includes R88 designs)
Threshold rule: apparent KD of MS2 coat protein greater than or equal to 60 nM is Met; below that, Not met.

| sequenceCode | class |
| --- | --- |
| AAAAAAGCAGGAUAUACGAACAUGUCGAAAGACGUGAAGGGACAUGAGGAUCACCCAUGUAGAAGGGUUAAGAA [Mat - Exclusion 2 - JL mod - D75] | Not met |
| AUUAAACAUGAGGAUCACCCAUGUGAGGAUAUGCAAAAAAAAUUAUAUUAAAAAAAAAGCAGAAGGCACAUAUA [coft] | Met |
| AAAGGACAAGGAUAUACAUGAGGAUCACCCAUGUGUAAAACAUAAUAAAAUAACUUAUGUAGAAGGUGUCCAAA [Mat - Exclusion 3 - Eli mod - D100] | Met |
| AAGAAGUCAGGAUAUGCAAAAGAAAAGAAAAGAAAAGAAAAGCAGAAGGGACAUGAGGAUCACCCAUGUAAGAA [Metsuire Cambyses] | Not met |
| AAAAAGUCAGGAUAUUCGGAUAGGAAAACGAAAACCUAUCCGAAGAAGGGACAUGAGGAUCACCCAUGUGGAAA [67% Ecls-II - Late G segment 1] | Met |
| AAAAAGUGAGGAUAUACAUGAGGAUCACCCAUGUGUAUAAAAAAUUACACAAAAGAAAGUAGAAGGCACUAAAA [Ex 3 Summer] | Not met |

----------
Tested on: MS2 coat protein
testDescription: apparent KD of MS2 coat protein; designed switch direction (-1 OFF switch, 1 ON switch): -1; higher = weaker reporter binding
conditionSet: input ligand: none

| sequenceCode | apparent KD of MS2 coat protein [nM] |
| --- | --- |
| AUAAUGUAAGGAUAUCAGUCGUACAGCGAUAGCUGUACGACUGAGAAGGUACAUGAGGAUCACCCAUGUGAUCA [E4/8-A4] (Eterna round: R97, puzzle: Exclusion 4) | 3680 |
| GUCGUGCGGCUUUGCUGUACGAGUACAUGAGGAUCACCCAUGUAGGAUAUGGCACGCUUUGCGUGCCAGAAGGGCGUGCGUUGG [Excl-NG3-LRO10] (Eterna round: R96, puzzle: Exclusion NG 3) | 28.4 |
| GAGAGAAUCUAGGAUAUAUCAAGAGAAGGAGAGAUAGAAGGAGAGACAUGAGGAUCACCCAUGUCUUCGUGUAG [Default title] (Eterna round: R97, puzzle: Exclusion 6) | 15.8 |

----------
In this section, each of the sequences is paired with its reported apparent KD of K4 kissing-loop reporter.
Test system: K4 kissing-loop RNA reporter;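 note: bound reporter read as fluorescence of individual clusters on recovered sequencing chips by microscopy, with normalized cluster intensities fitted with a binding model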
testDescription: apparent KD of K4 kissing-loop reporter; higher = weaker reporter binding
conditionSet: Eterna round: R107; input ligand: FMN 200 uM

| sequenceCode | measureUnit | apparent KD of K4 kissing-loop reporter |
| --- | --- | --- |
| GCCGUACGCAUGGAUACCAGCAUCAGAUCUUAGUGAUGUUAAGUCGAGAGUUGGUCAAAAUGCCCUUGGCAGCCAUGCGUACGGC | nM | 128 |
| CUCGAGUGAUGUUCGUUUAUUUAUACAGAUACCAGUGAAUUUUAACACCCUUGGCAGCUGGUUGUAUCUUUGUUUUUUACACAAG [JR_Nu_ExcTheophyA_Sub024] | nM | 191 |
| GCGAAGUGAUGUUUCGCCAAUAUUUGAUGAAAGGAUAUCUACUUGAAGAGAAGGUUCAUAUGACUCAAUACCUGACUUGGACCCG [theeternabot_sameState_KL_FMN_A_37] | nM | 86.8 |
| UUGGAUUGAUGAGAGUUGAUUUGGUAGGAAGGAGCGGCCGAAAGGCCAGGUAGGUCGCCUAUUGACAGUGAUGUUGUUAUAUGGU [#16] | nM | 215 |
| UGUCAUUGGUCGGCCGCCACUAGACGGACAUAAAGUCUGUCAUAAAGAGUGAUGUUCUUAAAUAAUAGGACCGGGACCGAUGACU [TrypBS 29 #SwitchBubble #StaticStem] | nM | 440 |
| AAGGCCACGAGAAGGAGCGUGUUGUGGAGUGAUGUUCCAUUGUAGACCUAAGGUCUGCGAGCACAGGUAGGUCGCUCGUGGUCAA [whbob_SS_Arginine_B_2t150] | nM | 108 |

Origin of values: the supplement of paper PMC9170038
